compounds and their reported fluorescence slope
target: Voltage-gated potassium channel subunit beta-2 (Rattus norvegicus) (UniProt P62483); experiment: inhibitors of rat Kvbeta2 reductase activity – biochemical, NADPH fluorescence, primary screen (AID 622); settings: recombinant KvBeta, 4-cyanobenzaldehyde reduction, at 10 µM, stronger effect = higher value;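 also: slope of raw intensity against log time taken from 70 to 1610 s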
Sequence (P62483 whole entry, looked up): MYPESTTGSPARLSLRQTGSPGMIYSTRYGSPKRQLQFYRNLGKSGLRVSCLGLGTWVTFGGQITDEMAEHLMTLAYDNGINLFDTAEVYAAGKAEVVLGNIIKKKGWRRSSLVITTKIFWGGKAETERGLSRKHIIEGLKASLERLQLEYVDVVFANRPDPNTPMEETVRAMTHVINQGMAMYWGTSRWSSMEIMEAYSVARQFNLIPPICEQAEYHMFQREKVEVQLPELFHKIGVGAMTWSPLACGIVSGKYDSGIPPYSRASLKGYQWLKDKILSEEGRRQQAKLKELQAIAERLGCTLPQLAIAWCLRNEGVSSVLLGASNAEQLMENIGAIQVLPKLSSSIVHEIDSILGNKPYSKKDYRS
The source made the active and inactive calls.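 The calls were made as follows: active = fluorescence slope higher than the sample average by over 3 SD (cut at about -0.22 in these data, passing the limit was not always enough); inactive = the rest.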

Cc1cc(C)n2nc(SCc3nc4ccccc4[nH]3)nc2n1 | -0.568 (inactive)

For the compound CCc1ccccc1NC(=O)C(C#N)Cc1cccnc1 (stereo unspecified) , give its reported fluorescence slope.
-0.51 (inactive)

Return fluorescence slope (reported value) for this compound: COc1ccccc1C(=O)NCC(=O)Nc1ccccc1
-0.451 (inactive)

---

// values below are reported NADPH fluorescence slope
target: Voltage-gated potassium channel subunit beta-2 (Rattus norvegicus) (UniProt P62483); test: enhancers of rat Kvbeta2 NADPH turnover – biochemical, NADPH fluorescence, primary screen (AID 623); conditions: Recombinant KvBeta, NADPH fluorescence decrease slope, 10 min; at 10 µM; stronger effect = lower value;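 also: fluorescence intensity change per second fitted from 20 to 320 s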
// print number alone

# example entries with known answers
CCC1c2ccc(C)n2CCN1C(=O)Nc1ccccc1OC (stereo unspecified) | -6.4e-05
Cn1c(=O)c2c(nc(NCC3CCCO3)n2C)n(C)c1=O (stereo unspecified) | -1.6e-05
Cc1cc(NC(=O)CSc2nc3c(c(-c4cccnc4)c2C#N)CCC3)no1 | -6.5e-05
CN(C)/C=C(\C#N)c1nc2ccccc2[nH]1 | -3.9e-05
Cc1c(NS(=O)(=O)c2ccc3c(c2)c(=O)n(C)c(=O)n3C)c(=O)n(-c2ccccc2)n1C | 0.000112

Please supply the value of reported NADPH fluorescence slope for the item O=C(NCCCN1CCCC1=O)c1cccnc1
-4.3e-06

State its NADPH fluorescence slope: CCCCCCn1c(CN2CCN(Cc3ccccc3)CC2)nc2c1c(=O)n(C)c(=O)n2C
-5.6e-05

Return the recorded NADPH fluorescence slope value; entry: CCOC(=O)c1ccc(NS(=O)(=O)c2ccc(SC)cc2)cc1
-4.9e-05

Look up and report measured NADPH fluorescence slope for this entry: O=C(O)CCc1ccc(-c2ccc(F)cc2)n1CCC(=O)O
-5.7e-05

Indicate the recorded NADPH fluorescence slope value for this compound: COc1ccc(CCNc2oc(Cc3cccc4ccccc34)nc2C#N)cc1OC
-8.6e-06

Give NADPH fluorescence slope for the following compound: N#Cc1c(-c2ccccc2)nc(SCc2nc(N)nc(N3CCCCC3)n2)[nH]c1=O
0.000117

---

biological target: Voltage-gated potassium channel subunit beta-2 (Rattus norvegicus) (UniProt P62483); assay: inhibitors of rat Kvbeta2 reductase activity – biochemical, NADPH fluorescence, primary screen (AID 622); settings: recombinant KvBeta, 4-cyanobenzaldehyde reduction, at 10 µM, stronger effect = higher value;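 also: slope of raw intensity against log time taken from 70 to 1610 s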
// 0.0 strictly below -0.4 in fluorescence slope; 1.0 otherwise

Example entries and their recorded answers appear below.
COc1ccc(CN2C(=O)c3cccnc3C2Nc2cc(Cl)ccc2OC)cc1 (stereo unspecified) | 0.0
COCCn1c(CN2CCN(c3ccccc3F)CC2)nc2c1c(=O)n(C)c(=O)n2C | 0.0
O=C(CSc1n[nH]c(=O)[nH]c1=O)c1ccccc1 | 1.0
CCn1cnc2sc(C(=O)Nc3ccc4c(c3)OCO4)c(C)c2c1=O | 1.0
CCOc1ccc2c(c1)n(CO)c(=S)n2CO | 0.0

Entry CCOC(=O)C1CCN(C(=O)CSc2cc(=O)n(CC)c3ccccc23)CC1 : is its fluorescence slope no less than -0.4?
0.0

Determine whether this compound has fluorescence slope no lower than -0.4: Cc1ccc2c(c1)-c1c(cnn1CC(=O)Nc1ccccc1N1CCN(C)CC1)CO2
0.0

Could you please find out whether CC(C)(C)c1cc(NS(=O)(=O)c2ccc3c(c2)OCCO3)on1 has fluorescence slope that meets -0.4 or exceeds it?
0.0

Determine whether this compound has fluorescence slope no lower than -0.4: O=C(CN1C(=O)c2cccc3cccc1c23)N1CCN(c2ccccc2)CC1
1.0

fluorescence slope >= -0.4 for CCOC(=O)c1[nH]c(C)c(C(=O)Nc2ccc(C)c(Cl)c2)c1C ?
0.0

Given the entry C/C(N)=C(/C#N)C(=O)COC(=O)COc1ccc(Cl)cc1 , answer whether its fluorescence slope meets or surpasses -0.4.
0.0

Data provenance: PubChem BioAssay
